Value source: ChEMBL document CHEMBL3046870

experiment: Inhibition of Spinacia oleracea (spinach) chloroplast electron transport chain-mediated Mg2+-ATPase activity assessed as inorganic phosphate release
Measured IC50 accompanies every entry in the list below.
endpoint.label: IC50 (µM)

[
  {
    "compound": "CCCN(CCC)c1c([N+](=O)[O-])cc(C(F)(F)F)cc1[N+](=O)[O-]",
    "endpoint.label": "IC50",
    "value.observed": 90
  },
  {
    "compound": "CC(C)N(C(=O)SC/C(Cl)=C/Cl)C(C)C [Diallate]",
    "endpoint.label": "IC50",
    "value.observed": 65
  }
]

====

target.under.test: Photosystem II protein D1 (Spinacia oleracea, UniProt P69560)
experiment: Inhibition of Spinacia oleracea (spinach) photosystem II assessed as electron flow from H20 to PDOX after 1 hr by polarographically

[
  {
    "molecule": "CC(C)N(C(=O)SC/C(Cl)=C/Cl)C(C)C [Diallate]",
    "IC50 (µM)": 75
  }
]
